Let's look at some molecules and their measured Population Pyknosed Nuclei (%).
tested on: U2OS; experiment: Multiplex assay against U2OS; format: toxicity, cell-based; conditions: human, 24 h, 10 µM, compound concentration 10 uM, replicate 1
Give just the number in %; leave the unit off.

Known Population Pyknosed Nuclei (%) results, listed for orientation:
- molecule: "COC[C@@H](c1ccc(C(F)(F)F)cc1)N1CCN(C2(C)CCN(C(=O)c3c(C)ncnc3C)CC2)C[C@@H]1C.O=C(O)/C=C\\C(=O)O [VICRIVIROC MALEATE]"
  Population Pyknosed Nuclei (%): 6
- molecule: "CCCCCC(O)/C=C/[C@H]1C(=O)CC(O)C1C/C=C\\CCCC(=O)O (stereo not given in full)"
  Population Pyknosed Nuclei (%): 9
- molecule: "CC(=O)Nc1cccc2c1c(Sc1ccc(Cl)cc1)c(C)n2CC(=O)O [AZD1981]"
  Population Pyknosed Nuclei (%): 9
- molecule: "C[C@H](N)COC(=O)[C@@H](CCCCN)NC(=O)Cc1c(-c2ccc3ccccc3c2)[nH]c2c1ccc1ccccc12"
  Population Pyknosed Nuclei (%): 6

For `CCCOc1ccc2[nH]cc(C3=CCNCC3)c2n1.Cl` on U2OS, measured Population Pyknosed Nuclei (%) was 8

---

tested on: HEK-293T; experiment: Multiplex assay against HEK293T; format: toxicity, cell-based; details: human, 24 h, 10 µM, compound concentration 10 uM, replicate 2
Let's look at some molecules and their measured Population Normal (%).
Give just the number in %; leave the unit off.

Known Population Normal (%) results, listed for orientation:
- molecule: "CC(C)(C)c1cc(NC(=O)Nc2ccc(-c3cn4c(n3)sc3cc(OCCN5CCOCC5)ccc34)cc2)no1"
  Population Normal (%): 90
- molecule: "CCCOc1ccc2[nH]cc(C3=CCNCC3)c2n1.Cl"
  Population Normal (%): 96
- molecule: "CC(=O)Nc1cccc2c1c(Sc1ccc(Cl)cc1)c(C)n2CC(=O)O"
  Population Normal (%): 87
- molecule: "O=C1[C@H](Cc2ccc(O)cc2)N2C(=O)CCN(C(=O)NCc3ccccc3)[C@H]2CN1Cc1cccc2ccccc12"
  Population Normal (%): 85

Quick note, Population Normal (%) for `CN(C)C(=O)Cn1cc(-c2ccc(-c3cncc4ccccc34)cc2)cn1` landed at 85

Quick note, Population Normal (%) for Cl.N=C(N)NC(=O)Cc1c(Cl)cccc1Cl [GUANFACINE HYDROCHLORIDE] landed at 90

Quick note, Population Normal (%) for `CC[C@@H](C)Nc1nc(C)nc2c(-c3ccc(OC)nc3C)c(C)nn12` landed at 86

Quick note, Population Normal (%) for CCCCCC(O)/C=C/[C@H]1C(=O)CC(O)C1C/C=C\CCCC(=O)O (some centres undefined) landed at 90

Quick note, Population Normal (%) for `CC(/C=C1\SC(=S)N(CCCC(=O)Nc2ccc(C(=O)O)c(O)c2)C1=O)=C\c1ccccc1` landed at 93

---

tested on: HEK-293T; assay: Multiplex assay against HEK293T; format: toxicity, cell-based; settings: human, 12 h, 1 µM, compound concentration 1 uM, replicate 2
recorded metric: Total Cell Count
Write the value as a bare number.

Known Total Cell Count results, listed for orientation:
- compound: "Cc1cccc(NC(=O)CN2CCC(c3ccccn3)CC2)c1.Cl.Cl"
  recorded metric: "Total Cell Count"
  reported measurement: 277
- compound: "COc1ccccc1N1CCN(C[C@@H](C(=O)NC(C)(C)C)c2ccccc2)CC1.Cl.Cl"
  recorded metric: "Total Cell Count"
  reported measurement: 300
- compound: "CCCOc1ccc2[nH]cc(C3=CCNCC3)c2n1.Cl"
  recorded metric: "Total Cell Count"
  reported measurement: 344

Quick note, Total Cell Count for CCCCCC(O)/C=C/[C@H]1C(=O)CC(O)C1C/C=C\CCCC(=O)O (some centres undefined) landed at 383

Quick note, Total Cell Count for Br.CS(=O)(=O)Nc1c(O)ccc2c1CCCC2C1=NCCN1 (centres undefined) landed at 334

Quick note, Total Cell Count for `COc1cccc2c1c(NS(=O)(=O)c1ccc(Cl)s1)nn2Cc1cccc(CNC(=O)C(C)(C)O)c1` landed at 315
